System: A549/ATCC NSCLC
Experiment: NCI-60 one-dose screen, 48 h (100 = growth as untreated, 0 = no growth, -100 = all killed)
Settings: 10 µM unless noted
About 83,000 compounds went through this panel and 20% of them were active in at least one assay; those are over-represented in the sample as a whole.
Parameter class (string): assigned from measured growth. Ranges: band A (below 40%), band B (40% to below 90%), band C (90% or more)

These recorded examples may help you get a feel for the data.
COMPOUND	LABEL VALUE
O=C(Nc1ccccc1)NS(=O)(=O)c1c[nH]c(=S)[nH]c1=O	band B
C=C1C(=O)O[C@H]2[C@H]1CC/C(COC(=O)n1ccnc1)=C\CC[C@@]1(C)O[C@@H]21	band C

input: GET /class?item= `Cc1cc(C)c(NC(=O)c2sc3nc4c(cc3c2N)CCCCCC4)c(C)c1`
output: band B

input: GET /class?item= COc1cc2c(cc1OC)C(Sc1ccc(Cl)cc1)c1c(nc(N)c(C#N)c1N)O2 (centres undefined)
output: band B

input: GET /class?item= Cc1ccc(SC2c3ccc(C)cc3Oc3nc(N)c(C#N)c(N)c32)cc1 (centres undefined)
output: band C

input: GET /class?item= `N#Cc1c(NC(=O)c2cccs2)[n+]([O-])c2cc(C(F)(F)F)ccc2[n+]1[O-]`
output: band C

input: GET /class?item= `C=C(C)[C@@H]1CC[C@]2(C(=O)OCCOCCOCC[P+](c3ccccc3)(c3ccccc3)c3ccccc3)CC[C@]3(C)[C@H](CC[C@@H]4[C@@]5(C)CC[C@H](OC(C)=O)C(C)(C)[C@@H]5CC[C@]43C)[C@@H]12`
output: band A

input: GET /class?item= CCCCCCCCCCCCCC1=NCC[N+]1(CCO)Cc1ccccc1 (centres undefined)
output: band A

input: GET /class?item= `CC(C)(C)c1ccc2oc(=O)n(SC(Cl)(Cl)Cl)c2c1`
output: band C

----------
Tested on: A549/ATCC NSCLC
Test: NCI-60 one-dose screen, 48 h (100 = growth as untreated, 0 = no growth, -100 = all killed)
Conditions: 10 µM unless noted
Compounds without any hit were thinned out: in the full panel of roughly 83,000, 20% have a hit.
// 0 strictly below 50% in growth; 1 otherwise

COMPOUND	SYSTEM	LABEL VALUE
Cc1[nH]c2ncnc(Oc3ccc(NC(=O)Nc4ccc(Cl)c(C(F)(F)F)c4)cc3)c2c1C	A549/ATCC NSCLC	0

input: Given the entry `CC(=O)Oc1ccc(O)cc1` , answer whether its growth meets or surpasses 50%.
output: 1

input: Given the entry `C#CCN1C(=O)c2ccccc2N(CC#C)C12CCN(Cc1cn(CC(=O)Nc3ccccc3C(N)=O)nn1)CC2` , answer whether its growth meets or surpasses 50%.
output: 1

input: Given the entry COc1cc(C2=NNC(c3ccc(N(C)C)cc3)C2)cc(OC)c1OC (stereo not given) , answer whether its growth meets or surpasses 50%.
output: 0

input: Given the entry `COc1cc(-c2csc(NC(=O)Nc3cc(Cl)cc(Cl)c3)n2)cc(OC)c1OC` , answer whether its growth meets or surpasses 50%.
output: 0

----------
System: OVCAR-5 ovarian
Test: NCI-60 one-dose screen, 48 h (100 = growth as untreated, 0 = no growth, -100 = all killed)
Conditions: 10 µM unless noted
Compounds without any hit were thinned out: in the full panel of roughly 83,000, 20% have a hit.
Parameter class (string): assigned from measured growth. Ranges: 0 = under 70%, 1 = from 70% up to 90%, 2 = 90% and over

These recorded examples may help you get a feel for the data.
COMPOUND	LABEL VALUE
COc1ccc(NC(=O)Nc2ccc(Nc3nc(C)cc(Nc4ccc(C)cc4)n3)cc2)cc1	0
O=c1nc(-c2ccccc2)c2cc(-c3ccc(N4CCCC4)nc3)ccc2[nH]1	2
COc1cc(-c2csc(NC(=O)Nc3ccc(Cl)cc3)n2)cc(OC)c1OC	1
C#CCOC(=O)[C@]1(C)CCC[C@]2(C)[C@H]3C[C@H]4C(C(C)C)=C[C@]3(CC[C@H]21)[C@@H]1C(=O)CCC(=O)[C@@H]14	2

Kindly consider the entry below.
input: GET /class?item= `O=C(Nc1ccc2ncnc(Nc3ccc(F)c(Cl)c3)c2c1)c1ccccc1`
output: 1

----------
Tested on: RXF 393 renal
Assay: NCI-60 one-dose screen, 48 h (100 = growth as untreated, 0 = no growth, -100 = all killed)
Details: 10 µM unless noted
This is part of a sample that, as a whole, favours compounds with a hit. Of some 83,000 tested, about 20% had one in any assay.
Recorded growth for the following compounds
Please respond with the number in % and leave the unit unwritten.

Some solved cases for reference:
SMILES REPR	SYSTEM	RESULT
COc1ccc(-n2cc(COc3ccc4c5ccnc(C)c5n(CC(C)C)c4c3)nn2)cc1	RXF 393 renal	57.5
COc1ccc2c(c1)/C(=C1\S/C(=N/c3nnc(C)s3)NC1=O)C(=O)N2Cc1ccc(Cl)cc1	RXF 393 renal	75.8
COc1ccccc1Nc1nnc(-c2ccc(Cl)cc2)o1	RXF 393 renal	74.6

input: Returns the measured growth for the input compound. Input: `CCOC(=O)c1ccc(Nc2ncnc3ccc(NC(=O)c4ccccc4)cc23)cc1`
output: 80.7

input: Returns the measured growth for the input compound. Input: `c1ccc(-c2n(Cc3ccc4ccccc4n3)cc[n+]2Cc2ccc3ccccc3n2)cc1`
output: 52.2

----------
Tested on: UACC-62 melanoma
Assay: NCI-60 one-dose screen, 48 h (100 = growth as untreated, 0 = no growth, -100 = all killed)
Details: 10 µM unless noted
Experimental: Growth inhibition of the UACC-62 human tumor cell line is measured as a screen for anti-cancer activity. Cells are grown in 96 well plates and exposed to the test compound for 48 hours. Compounds are tested at a single concentration, which is 10^-5 M for most compounds. The reported endpoint is percent growth (GI% or GIPRCNT), where numbers from 0 - 100% represent growth inhibition, and numbers from -100% - 0 represent cell death. For example, a value of 40 represents 60% growth inhibition. […]
This is part of a sample that, as a whole, favours compounds with a hit. Of some 83,000 tested, about 20% had one in any assay.
Recorded growth for the following compounds
Please respond with the number in % and leave the unit unwritten.

SMILES REPR	UNIT OF MEASUREMENT	growth
C=CCn1c(CN2CCN(c3cc4c(cc3F)c(=O)c(C(=O)O)cn4C3CC3)CC2)n[nH]c1=S	%	99.9
O=Cc1[nH]c(Sc2ccccc2)c2ccccc12	%	62.3
COc1ccc(C(=S)c2cc(OC)c(OC)c(OC)c2)cc1OC(=O)CCl	%	47.9

Now for a further compound.
input: Returns the measured growth for the input compound. Input: `CCO/C=N/S(=O)(=O)c1cc2c(cc1Cl)NC=NS2(=O)=O`
output: 104

----------
Tested on: BT-549 breast
Test: NCI-60 one-dose screen, 48 h (100 = growth as untreated, 0 = no growth, -100 = all killed)
Settings: 10 µM unless noted
This is part of a sample that, as a whole, favours compounds with a hit. Of some 83,000 tested, about 20% had one in any assay.
Rule: growth below 80% gives rule met, anything at or above gives rule not met.

These recorded examples may help you get a feel for the data.
COMPOUND	LABEL VALUE
COc1ccc(-c2[nH]c3ccc(OC)cc3c2C=C(C#N)C#N)cc1	rule met
COCCOCCOCc1n(Cc2ccc3ccccc3n2)c2ccccc2[n+]1Cc1ccc2ccccc2n1	rule met
Cc1cccc(C)c1NCc1nnc(-c2ccco2)o1	rule not met

input: Is it true that growth reported for `Nc1c(C(=O)Nc2ccccn2)sc2nc3c(cc12)CCCCCC3` is less than 80%?
output: rule met

input: Is it true that growth reported for `S=C(Nc1ccc(Cl)cc1)c1ccccn1` is less than 80%?
output: rule not met

input: Is it true that growth reported for `O=C(Nc1cccc(-c2cccc(F)c2)c1)C1CCN(Cc2cccc3cccnc23)CC1` is less than 80%?
output: rule met

input: Is it true that growth reported for `CCOC(=O)c1sc(/N=C2\NC(=O)/C(=C/c3ccc(N4CCN(C)CC4)cc3)S2)nc1C` is less than 80%?
output: rule not met

input: Is it true that growth reported for COc1cc(C(C)c2ccc3c(ccn3C)c2)cc(OC)c1OC (centres undefined) is less than 80%?
output: rule met

input: Is it true that growth reported for `CCOC(=O)c1c(C)nc2c(c1N)/C(=C/c1ccc[nH]1)C(=O)N2Cc1ccc(C(F)(F)F)cc1` is less than 80%?
output: rule met

input: Is it true that growth reported for `Cc1[nH]c(N=Nc2ccccc2)nc1N=Nc1ccccc1` is less than 80%?
output: rule met

input: Is it true that growth reported for `O=C(/C(=C/c1ccc([N+](=O)[O-])cc1)SCc1ccccc1)c1ccc(Cl)cc1` is less than 80%?
output: rule not met

input: Is it true that growth reported for `CCN1CCN(Cc2ccc(NC(=O)c3cccc(C#Cc4cccc5[nH]nc(N)c45)c3)cc2C(F)(F)F)CC1` is less than 80%?
output: rule met

input: Is it true that growth reported for `O=C1C(Cl)=C(NCCCN(CCCNC2=C(Cl)C(=O)c3ccccc3C2=O)C2=C(Cl)C(=O)c3ccccc3C2=O)C(=O)c2ccccc21` is less than 80%?
output: rule not met

input: Is it true that growth reported for `CC(C)CSc1nc(Nc2ccccc2)c(C#N)c(-c2ccc(F)cc2)n1` is less than 80%?
output: rule met

input: Is it true that growth reported for `O=C(NC[C@H](O)CN1CCc2ccccc2C1)c1cc(NC2COC2)ncn1` is less than 80%?
output: rule not met

input: Is it true that growth reported for `CCN1CCN(c2ccc(NC(=O)Nc3nc4ccc(-c5ccccc5OC)cc4s3)cc2)CC1` is less than 80%?
output: rule met

input: Is it true that growth reported for `COc1ccccc1N1CCN(CCCOc2ccc(C(=O)/C=C3/C(=O)Nc4ccccc43)cc2)CC1` is less than 80%?
output: rule met

input: Is it true that growth reported for `COc1ccc2[nH]c3nc4cnccc4cc3c2c1` is less than 80%?
output: rule not met

Origin of measurements: PubChem BioAssay (NCI)
